test-target: Acetylcholinesterase (AChE) (Homo sapiens, UniProt P22303)
Sequence (P22303 32-614, species assumed): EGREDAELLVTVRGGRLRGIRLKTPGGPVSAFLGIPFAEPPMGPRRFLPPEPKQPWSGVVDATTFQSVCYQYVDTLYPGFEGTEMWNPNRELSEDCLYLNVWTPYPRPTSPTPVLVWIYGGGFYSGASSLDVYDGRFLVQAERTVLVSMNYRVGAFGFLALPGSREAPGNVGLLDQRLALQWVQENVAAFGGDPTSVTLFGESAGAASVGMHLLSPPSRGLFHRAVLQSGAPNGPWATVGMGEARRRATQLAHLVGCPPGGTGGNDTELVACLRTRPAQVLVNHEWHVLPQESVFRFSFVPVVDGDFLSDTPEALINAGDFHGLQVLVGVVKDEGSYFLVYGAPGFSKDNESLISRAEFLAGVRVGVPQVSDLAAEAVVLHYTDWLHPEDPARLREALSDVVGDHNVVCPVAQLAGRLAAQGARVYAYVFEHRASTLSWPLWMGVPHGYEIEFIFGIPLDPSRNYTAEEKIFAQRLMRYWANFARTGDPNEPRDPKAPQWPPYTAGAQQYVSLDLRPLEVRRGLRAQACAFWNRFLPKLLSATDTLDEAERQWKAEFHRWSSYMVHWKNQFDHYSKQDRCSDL
assay-comment: biochemical
protocol-conditions: 500.00 μg/mL upper concentration limit; read-out: Inhibitory Activities IC50, Acetylcholinesterase (converted)
We label by threshold. Values of IC50 strictly beneath 900 µM are Met. Values of 900 µM and up are Not met.

Please let me know if CCCC(=O)c1c(O)cc(O)c(CC=C(C)C)c1O shows IC50 below 900 µM. Not met

Dear reviewer, please state whether CC(=O)OC/C(C)=C/Cc1c(O)cc(O)c(C(=O)c2ccccc2)c1O has IC50 strictly beneath 900 µM. Met

Criterion: IC50 strictly below 900 µM. Is it met by C=C(C)[C@@H](O)Cc1c(O)cc(O)c(C(=O)c2ccccc2)c1O ? Met

Answer whether the compound CCCC(=O)c1c(O)cc(O)c(C/C=C(\C)COC(C)=O)c1O has IC50 strictly less than 900 µM Met

is_below(IC50, 900 µM) for CCC(C)C(=O)c1c(O)cc(O)c(CC=C(C)C)c1O (centres unmarked) ? Not met
